- System: M.morganii GN5407
- procedureSummary: In vitro antibacterial activity, agar plate dilution method (MIC)
- Format: cell-based
- assayConditions: Morganella morganii; M.morganii GN5407 (β-Lactamase-producing strain); Mueller Hinton agar, inoculum 10⁶ CFU/ml, 37°C, 16 hours; read-out: Minimum Inhibitory Concentration (MIC: µg/ml)
Consider the following compounds and their measured MIC readings.
recordedEndpoint: MIC (µg/mL)

>>> observedmeasurement("Nc1nc(/C(=N/OC2(C(=O)O)CCCC2)C(=O)NC2C(=O)N3C(C(=O)[O-])=C(C[n+]4ccc5cc(O)c(O)cc5c4)CSC23)cs1 (stereo not drawn)")
0.1
>>> observedmeasurement("CC(C)(ON=C(C(=O)NC1C(=O)N2C(C(=O)[O-])=C(C[n+]3ccc4ccccc4c3)CSC12)c1csc(N)n1)C(=O)O (stereo not drawn) [Reference Ex. 1, reference compound]")
0.05
>>> observedmeasurement("CC(C)ON=C(C(=O)NC1C(=O)N2C(C(=O)[O-])=C(C[n+]3ccc4cc(O)c(O)cc4c3)CS[C@H]12)c1csc(N)n1 (stereo partly drawn)")
0.05
>>> observedmeasurement("CC(C)(ON=C(C(=O)NC1C(=O)N2C(C(=O)[O-])=C(C[n+]3ccc4c(O)cccc4c3)CSC12)c1csc(N)n1)C(=O)O (stereo not drawn) [Reference Ex. 4, reference compound]")
0.1
>>> observedmeasurement("CO/N=C(\\C(=O)NC1C(=O)N2C(C(=O)[O-])=C(C[n+]3ccc4cc(OC(C)=O)c(OC(C)=O)cc4c3)CSC12)c1csc(N)n1 (stereo not drawn)")
0.05
>>> observedmeasurement("CO/N=C(\\C(=O)NC1C(=O)N2C(C(=O)[O-])=C(C[n+]3ccc4cc(O)c(O)cc4c3)CSC12)c1csc(N)n1 (stereo not drawn)")
0.1
>>> observedmeasurement("CON=C(C(=O)NC1C(=O)N2C(C(=O)[O-])=C(C[n+]3ccc4cccc(O)c4c3)CS[C@H]12)c1csc(N)n1 (stereo partly drawn) [Reference Ex. 3, reference compound]")
0.025
>>> observedmeasurement("C=CCON=C(C(=O)NC1C(=O)N2C(C(=O)[O-])=C(C[n+]3ccc4cc(O)c(O)cc4c3)CS[C@H]12)c1csc(N)n1 (stereo partly drawn)")
0.05
>>> observedmeasurement("C=C(O/N=C(\\C(=O)NC1C(=O)N2C(C(=O)[O-])=C(C[n+]3ccc4cc(O)c(O)cc4c3)CSC12)c1csc(N)n1)C(=O)O (stereo not drawn)")
0.05

* * *

- Tested on: S.aureus JS1
- procedureSummary: In vitro antibacterial activity, agar plate dilution method (MIC)
- Assay type: cell-based
- assayConditions: Staphylococcus aureus; S.aureus JS1 (β-Lactamase-producing strain); Mueller Hinton agar, inoculum 10⁶ CFU/ml, 37°C, 16 hours; read-out: Minimum Inhibitory Concentration (MIC: µg/ml)
recordedEndpoint: MIC (µg/mL)

>>> observedmeasurement("CO/N=C(\\C(=O)N[C@@H]1C(=O)N2C(C(=O)O)=C(COC(C)=O)CS[C@H]12)c1csc(N)n1 [Cefotaxime, reference compound]")
25
>>> observedmeasurement("Nc1nc(/C(=N/OC2(C(=O)O)CCCC2)C(=O)NC2C(=O)N3C(C(=O)[O-])=C(C[n+]4ccc5cc(O)c(O)cc5c4)CSC23)cs1 (stereo not shown)")
100
>>> observedmeasurement("C=CCON=C(C(=O)NC1C(=O)N2C(C(=O)[O-])=C(C[n+]3ccc4cc(O)c(O)cc4c3)CS[C@H]12)c1csc(N)n1 (stereo partly shown)")
12.5
>>> observedmeasurement("C=C(O/N=C(\\C(=O)NC1C(=O)N2C(C(=O)[O-])=C(C[n+]3ccc4cc(O)c(O)cc4c3)CSC12)c1csc(N)n1)C(=O)O (stereo not shown)")
100

* * *

- System: Ps.aeruginosa IFO3445
- procedureSummary: In vitro antibacterial activity, agar plate dilution method (MIC)
- Assay type: cell-based
- assayConditions: Pseudomonas aeruginosa; Ps.aeruginosa IFO3445; Mueller Hinton agar, inoculum 10⁶ CFU/ml, 37°C, 16 hours; read-out: Minimum Inhibitory Concentration (MIC: µg/ml)
recordedEndpoint: MIC (µg/mL)

>>> observedmeasurement("CO/N=C(\\C(=O)NC1C(=O)N2C(C(=O)[O-])=C(C[n+]3ccc4cc(OC(C)=O)c(OC(C)=O)cc4c3)CSC12)c1csc(N)n1 (stereo not drawn)")
0.78
>>> observedmeasurement("CO/N=C(\\C(=O)NC1C(=O)N2C(C(=O)[O-])=C(C[n+]3ccc4cc(O)c(O)cc4c3)CSC12)c1csc(N)n1 (stereo not drawn)")
0.78
>>> observedmeasurement("C#CCON=C(C(=O)NC1C(=O)N2C(C(=O)[O-])=C(C[n+]3ccc4cc(O)c(O)cc4c3)CS[C@H]12)c1csc(N)n1 (stereo partly drawn)")
0.78
